# System: Mycobacterium avium
# assay_method_text: Antimycobacterial activity against Mycobacterium avium CNCTC My 330/88 after 21 days by micromethod
# Type: functional
# experimental_context: CNCTC My 330/88, 504 h
measured_attribute: MIC (µM)

- smiles_str: "COc1ccc(CSc2nnc(-c3cc(N)cc([N+](=O)[O-])c3)o2)cc1"
  measurement_units: "µM"
  relation_sign: "="
  recorded_result: 250
- smiles_str: "O=[N+]([O-])c1cc(-c2nnc(SCc3ccc(Cl)c(Cl)c3)o2)cc(C(F)(F)F)c1"
  measurement_units: "µM"
  relation_sign: ">"
  recorded_result: 250
- smiles_str: "CC(=O)Nc1cc(-c2nnc(SCc3ccc([N+](=O)[O-])cc3)o2)cc([N+](=O)[O-])c1"
  measurement_units: "µM"
  relation_sign: ">"
  recorded_result: 500
- smiles_str: "O=[N+]([O-])c1cc(-c2nnc(SCc3cccc(Cl)c3)o2)cc([N+](=O)[O-])c1"
  measurement_units: "µM"
  relation_sign: "="
  recorded_result: 8
- smiles_str: "O=[N+]([O-])c1cc(-n2nnnc2SCc2ccccc2)cc([N+](=O)[O-])c1"
  measurement_units: "µM"
  relation_sign: "="
  recorded_result: 8
- smiles_str: "O=[N+]([O-])c1cc(O)cc(-c2nnc(SCc3ccc(Cl)c(Cl)c3)o2)c1"
  measurement_units: "µM"
  relation_sign: ">"
  recorded_result: 250
- smiles_str: "O=[N+]([O-])c1cc(-c2nnc(SCc3ccccc3)o2)cc([N+](=O)[O-])c1"
  measurement_units: "µM"
  relation_sign: "="
  recorded_result: 4
- smiles_str: "Nc1cc(-c2nnc(SCc3ccccc3)o2)cc([N+](=O)[O-])c1"
  measurement_units: "µM"
  relation_sign: "="
  recorded_result: 250
